# systemName: T1, rat GALR1 (rat, UniProt Q62805 1-346)
# T1 sequence: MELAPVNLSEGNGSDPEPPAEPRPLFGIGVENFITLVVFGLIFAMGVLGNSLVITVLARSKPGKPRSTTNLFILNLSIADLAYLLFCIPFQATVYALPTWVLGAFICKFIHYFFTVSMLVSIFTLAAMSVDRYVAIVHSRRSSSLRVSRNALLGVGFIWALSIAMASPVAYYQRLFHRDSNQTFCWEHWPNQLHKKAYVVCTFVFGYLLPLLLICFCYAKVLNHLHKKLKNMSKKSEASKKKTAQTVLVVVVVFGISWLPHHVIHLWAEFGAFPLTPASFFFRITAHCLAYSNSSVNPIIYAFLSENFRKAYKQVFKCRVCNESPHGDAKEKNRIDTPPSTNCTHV
# experimentNotes: competition of 125I-human galanin binding, membranes

- binder: "GWTLNSAGYLLGPHAVGNH (peptide, UniProt P22466 33-51, looked up, range 1-19; also called hGal (1-19)) [human Gal (1-19)]"
  IC50: "0.86 nM"
